Tested on: Bcap37
Protocol: Cytotoxicity against human Bcap37 cells assessed as induction of cell death incubated for 2 days by MTT assay
Type: functional, cell-based
Run conditions: Bcap37, 48 h
Measure name: IC50

Some compounds with recorded IC50:
CC(=O)OC[C@H]1O[C@@H](O[C@H]2[C@@H](O)[C@@H](C)O[C@@H](O[C@H]3CC[C@@]4(C)[C@@H](CC[C@]5(C)[C@@H]4C=C[C@]46OC[C@@]7(CCC(C)(C)C[C@H]74)[C@H](O)C[C@]65C)[C@]3(C)CO)[C@@H]2O)[C@H](O)[C@@H](O)[C@@H]1O ... 17.7 µM
C[C@@H]1O[C@@H](O[C@H]2[C@H](O)[C@@H](O)[C@H](O[C@H]3CC[C@]4(C)[C@H]5C=C[C@]67OC[C@@]8(CCC(C)(C)C[C@H]86)[C@@H](O)C[C@@]7(C)[C@]5(C)CC[C@H]4C3(C)C)O[C@@H]2CO[C@@H]2O[C@H](CO)[C@@H](O)[C@H](O)[C@H]2O)[C@H](O)[C@H](O)[C@H]1O ... > 50 µM
CC(=O)OC[C@@]1(C)[C@@H]2CC[C@]3(C)[C@H](C=C[C@]45OC[C@@]6(CCC(C)(C)C[C@H]64)[C@@H](O)C[C@]53C)[C@@]2(C)CC[C@@H]1O[C@@H]1O[C@H](C)[C@H](O)[C@H](O[C@@H]2O[C@H](CO)[C@@H](O)[C@H](O)[C@H]2O)[C@H]1O ... > 50 µM

Kindly consider the entry below.
API: value(readout= IC50, system= Bcap37, query= C[C@H]1O[C@@H](O[C@H]2CC[C@@]3(C)[C@@H](CC[C@]4(C)[C@@H]3C=C[C@]35OC[C@@]6(CCC(C)(C)C[C@H]63)[C@H](O)C[C@]54C)[C@]2(C)CO)[C@H](O)[C@@H](O)[C@H]1O ) 32 µM
